Entries annotated with measured recombinant barcode read abundance (log10)
Assay: recombinant barcode read abundance after kanamycin selection (control-corrected) (log10(CPM+1)); higher = more efficient recombination; sequences stand for … in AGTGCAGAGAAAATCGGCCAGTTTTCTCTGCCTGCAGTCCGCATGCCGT…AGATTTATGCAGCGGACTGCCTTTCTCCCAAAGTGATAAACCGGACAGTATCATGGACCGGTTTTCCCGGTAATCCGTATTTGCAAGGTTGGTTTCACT; site = the 11-nt target

Take a look at these entries with their results.
1. AGTAGACCTTGGGTTCTAACCTGTTGCTT (site AGTAGACCTAA) : 0.828
2. CAGTCTGCTTGGGTTCTAACCTGTTGCCT (site CAGTCTGCTAG) : 0.512
3. AGCCACCCTTGGGTTCTAACCTGTTGCCT (site AGCCACTCTAG) : 0.522
4. AGTCTCTCTTGGGTTCTAACCTGTTGCCG (site AGTCTCTCTTA) : 0.0569

Continue with the sequence presented below.
Give recombinant barcode read abundance (log10) for AGCTACTCTTGGGTTCTAACCTGTTGCTT (site AGTTAATCTAA)
0.144

* * *

Test: recombinant UMI read abundance after kanamycin selection (control-corrected) (log10(CPM+1)); higher = more efficient recombination; extreme values may be limits of the assay; sequences stand for … in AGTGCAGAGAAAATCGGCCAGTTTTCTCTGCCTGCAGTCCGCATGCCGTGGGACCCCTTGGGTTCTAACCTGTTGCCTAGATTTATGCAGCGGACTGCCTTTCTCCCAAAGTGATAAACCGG…AGGTTGGTTTCACT; site = the 11-nt donor
endpoint_label: recombinant UMI read abundance (log10)
I'd appreciate a reply containing only the number, no unit.

1. CCCCCCACATGGACCGGTTTTCCCGGTAATCCGTATTTGTA (site CCCCACACTTA) : 0.00745

Give recombinant UMI read abundance (log10) for GTTGTACCATGGACCGGTTTTCCCGGTAATCCGTATTTGGT (site GTTGTCCCTAC)
0.0245

Give recombinant UMI read abundance (log10) for TGCTTGGCATGGACCGGTTTTCCCGGTAATCCGTATTTGGT (site TGCTTGGCTAC)
0.0115

Give recombinant UMI read abundance (log10) for CCCCACACATGGACCGGTTTTCCCGGTAATCCGTATTTGTA (site CCTCACACTTA)
0.0102

* * *

Entries annotated with measured recombinant barcode read abundance (log10)
Test: recombinant barcode read abundance after kanamycin selection (control-corrected) (log10(CPM+1)); higher = more efficient recombination; sequences stand for … in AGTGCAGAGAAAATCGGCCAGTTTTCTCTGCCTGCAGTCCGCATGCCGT…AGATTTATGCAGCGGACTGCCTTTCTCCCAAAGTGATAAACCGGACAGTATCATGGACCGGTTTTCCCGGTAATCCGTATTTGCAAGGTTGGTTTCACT; site = the 11-nt target

Take a look at these entries with their results.
1) GAAATGACTTGGGTTCTAACCTGTTGCCT (site GCAATGACTAG) : 0.152
2) TCTACGTCTTGGGTTCTAACCTGTTGCCT (site TCTACATCTAG) : 0.0403
3) ATGAAGCCTTGGGTTCTAACCTGTTGCCT (site ATGAAGCCTAG) : 1.87
4) ATAAGGGCTTGGGTTCTAACCTGTTGCCT (site ATAAATGCTAG) : 0.183

Continue with the sequence presented below.
Give recombinant barcode read abundance (log10) for TCCCGAACTTGGGTTCTAACCTGTTGCCT (site TCCCGATCTAG)
0.0125
